From: ChEMBL document CHEMBL4699644

Exercise: state measured fraction unbound at 4 h, 1 ug/ml for each of the compounds provided.
experiment: Protein binding in mouse plasma at 1 ug/ml incubated for 4 hrs by LC-MS analysis; assay type: ADME, cell-free; conditions: at 1 µg/mL, read-out: PPB (converted)
One number for each entry.

Example entries and their recorded answers appear below.
[
  {
    "compound": "CN1CCNC(=O)COc2ccc(Cl)cc2C(=O)N2CCCC[C@H]2c2cc3nc([C@H]4C[C@H](O)C4)cc1n3n2",
    "fraction unbound at 4 h, 1 ug/ml": 0.145
  },
  {
    "compound": "Cc1ccc2c(c1)C(=O)N1CCCCC1c1cc3nc(N4CCC4)cc(n3n1)N(C)CCNC(=O)CO2 (centres undefined)",
    "fraction unbound at 4 h, 1 ug/ml": 0.031
  },
  {
    "compound": "CN1CCNC(=O)COc2ccc(F)cc2C(=O)N2CCCC[C@H]2c2cc3nc(N4CCC4)cc1n3n2",
    "fraction unbound at 4 h, 1 ug/ml": 0.02
  }
]

Pending compound:
Req: Provide only the value of recorded fraction unbound at 4 h, 1 ug/ml for "Cc1ccc2c(c1)C(=O)N1CCCC[C@H]1c1cc3nc([C@H]4C[C@H](O)C4)cc(n3n1)N(C)CCNC(=O)CO2"
Resp: 0.222

* * *

assay: Permeability of compound incubated for 4 hrs by PAMPA assay; assay type: ADME; conditions: read-out: permeability
parameter: Papp at 4 h
Please format your answer as a value with the unit trailing.

[
  {
    "substance-smiles": "CN1CCNC(=O)COc2ccc(F)cc2C(=O)N2CCCC[C@H]2c2cc3nc(N4CC(O)C4)cc1n3n2",
    "obs-value": "8 ×10⁻⁶ cm/s"
  }
]

Give one value of Papp at 4 h per listed compound.
1. CNC1CN(c2cc3n4nc(cc4n2)[C@@H]2CCCCN2C(=O)c2cc(F)ccc2OCC(=O)NCCN3C)C1
2. CN1CCNC(=O)COc2ccc(F)cc2C(=O)N2CCCC[C@H]2c2cc3nc(N4CCC4)cc1n3n2
3. CN1CCNC(=O)COc2ccc(F)cc2C(=O)N2CCCC[C@H]2c2cc3nc([C@H]4C[C@H](O)C4)cc1n3n2
4. CN1CCNC(=O)COc2ccc(F)cc2C(=O)N2CCCC[C@H]2c2cc3nc([C@H]4C[C@@H](O)C4)cc1n3n2
5. CN1CCNC(=O)COc2ccc(F)cc2C(=O)N2CCCC[C@H]2c2cc3nc(N4CC[C@H](N)C4)cc1n3n2
6. CN1CCNC(=O)COc2ccc(F)cc2C(=O)N2CCCC[C@H]2c2cc3nc(N4CC(N)C4)cc1n3n2

Resp:
1: 5.9 ×10⁻⁶ cm/s; 2: 80 ×10⁻⁶ cm/s; 3: 27 ×10⁻⁶ cm/s; 4: 28 ×10⁻⁶ cm/s; 5: 0.3 ×10⁻⁶ cm/s; 6: 3.3 ×10⁻⁶ cm/s

* * *

tested on: CYP3A; test: Inhibition of human liver microsomes CYP3A at 10 uM using testosterone as substrate in presence of NADPH preincubated for 30 mins followed by substrate addition and measured after 10 mins by LC/MS analysis; type: ADME, Microsome; conditions: probe testosterone, time 40 min
Exercise: state measured inhibition at 10 min, 10 µM for each of the compounds provided.
Numbers only, in %.

Example entries and their recorded answers appear below.
[
  {
    "compound": "CN1CCNC(=O)COc2ccc(Cl)cc2C(=O)N2CCCC[C@H]2c2cc3nc([C@H]4C[C@H](O)C4)cc1n3n2",
    "assay-target": "CYP3A",
    "parameter": "inhibition at 10 min, 10 µM",
    "obs-value": -1.4
  },
  {
    "compound": "CN1CCNC(=O)COc2ccc(F)cc2C(=O)N2CCCC[C@H]2c2cc3nc(N4CCC4)cc1n3n2",
    "assay-target": "CYP3A",
    "parameter": "inhibition at 10 min, 10 µM",
    "obs-value": -4.7
  },
  {
    "compound": "Cc1ccc2c(c1)C(=O)N1CCCCC1c1cc3nc(N4CCC4)cc(n3n1)N(C)CCNC(=O)CO2 (stereo unspecified)",
    "assay-target": "CYP3A",
    "parameter": "inhibition at 10 min, 10 µM",
    "obs-value": 60.1
  },
  {
    "compound": "CN1CCNC(=O)COc2ccc(Cl)cc2C(=O)N2CCCCC2c2cc3nc(N4CCC4)cc1n3n2 (stereo unspecified)",
    "assay-target": "CYP3A",
    "parameter": "inhibition at 10 min, 10 µM",
    "obs-value": -2.9
  },
  {
    "compound": "CN1CCNC(=O)COc2ccc(F)cc2C(=O)N2CCCC[C@H]2c2cc3nc([C@H]4C[C@H](O)C4)cc1n3n2",
    "assay-target": "CYP3A",
    "parameter": "inhibition at 10 min, 10 µM",
    "obs-value": 0.4
  }
]

Pending compound:
Req: Provide only the value of recorded inhibition at 10 min, 10 µM for "Cc1ccc2c(c1)C(=O)N1CCCC[C@H]1c1cc3nc([C@H]4C[C@H](O)C4)cc(n3n1)N(C)CCNC(=O)CO2"
Resp: 57
